Test system: PXR:RXRa (NR concentration 270 nM, RXRa partner concentration 90 nM)
assay procedure: PBM binding z-score (relative to random genomic background probes); higher = stronger binding; sequences stand for … in GC…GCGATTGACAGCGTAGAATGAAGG
# PBM binding z-score values compiled below
measured endpoint: PBM binding z-score

CCTTACGAGTCACTGACAGGTTATAGCATTTGGA 0.7
CTTCCAAGGTCAATGCTAGGTCAGTGAAAGCATT 4.64
CGAGCGAGGGCATGAGTTGATAGCAAATGCCGAT 0.544
GCGACTGGGGCAAAGCAGGTTACCATAAGGTTGG 0.415
CCTACTGGGCCATTCAGACGTCATTGATCATATG -0.71
ATCTCTAGGTAATGATAGTTCAGTGAATGCAAAT 1.12
ATCTCTAGGTAAAAGTACAGTGAATCCCGAGGAT -0.149
CGTCATAGTTCAAGGTAACGTAACAGAAAGCAGC 1.39
ATACCAAAGTGATCGTGAGGTCGTTGATACTAAC 1.86
AGAATGAGGTTATACGTAGACCAGGGAAGAAAGT 0.906
GTACCAAGGTGAATAGGTCGTTAATGAGTAGGCG 0.664
TCTAGCAGGTCAGAGGGTCACTCAAGAGGTACGG 3.55
CCTAGTTGGTCAAGGTCACACTCGCTATAGGTAC 3.95
AGTCAAAGTTCAGGACGAGTTAACGTAAAGCACG 3.59
CGAACTAGGTCATGCAGGACAGTGAATACATTGA 1.34
CGTCAAAGTTCAAGGTAACGTTACAGAAAGCAGC 4.49
TCATAAAGGTAAACAGGTGAAAGTCCGTAAGTTA 1.22

----------
Test system: LXRa homodimer (NR concentration 270 nM)
assay procedure: PBM binding z-score (relative to random genomic background probes); higher = stronger binding; sequences stand for … in GC…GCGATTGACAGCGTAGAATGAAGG
Label Satisfied when PBM binding z-score >= -0.3; otherwise Not satisfied.

TCATATAGGTAATACAGGTGAAAGCCGGCATCTA Satisfied
TCTTTTAGATCAACAGGAGGTTAAGAAAGATCGA Satisfied
CCTAGCAGGCCAGGGTCACTCAAGCATTTCGCTT Satisfied
TCTTGTAGATCAACAGGAGGTTAAAAAAGATCGA Satisfied
ATCTCTAGGTAAAATTTCAGTGAATCCCGAGGAT Satisfied
CCTAGCAGGCTAGGGTCACTCAAGCATTTCGCTT Not satisfied
AGTCAATGTTCAGGACGAGGTAACGTAAAGCACG Satisfied
TAGCCTTGGTCATGCGGGCCAGTATAGTGTCGGC Not satisfied

----------
System: RARb homodimer (NR concentration 270 nM)
assay procedure: PBM binding z-score (relative to random genomic background probes); higher = stronger binding; sequences stand for … in GC…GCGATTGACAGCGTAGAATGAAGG
Label T when PBM binding z-score >= 4; otherwise F.

CCTACTGGGCCACGAAAGGTCATAGATTCAGTGA T
CAAACTAGGTCAAGAGGCCAAAGTCCGCTTCCCG F
GCATATAAGTAATACAAGGTGAAAGTCCGATTGT F
ACAGACAAGTGAGTGAAGGTAACTCAGCTGGACG F
CAAACTAGGTCAAGGTCAAAGACGGTTTGTGCCA T
TCTGCTAGGTCAACGATGGTCAGCTACTCTGCTA F
